Read-out: urokinase plasminogen activator (uPA), PLAU (gene 5328)
experiment-notes: BSK_KF3CT_uPA: BioMAP Diversity Plus: KF3CT Assay for urokinase plasminogen activator (uPA) Biomarker Activity (AID 2283075)
run-parameters: primary human keratinocytes with fibroblasts; actives raise or lower the signal
Active and inactive are the calls of the source. How the source made its calls: active means hit-call score of the fitted dose curve at least 0.9, where 1 is the maximum; inactive means score below 0.9.
Outcomes: active, inactive

>>> assigned_category("CCCC(CCC)C(=O)O")
"inactive"
>>> assigned_category("c1ccc2c(c1)-c1cccc3c1c-2cc1ccccc13")
"inactive"
>>> assigned_category("CC(C)c1nnc2ccc(-c3ocnc3-c3cc(F)ccc3F)cn12")
"inactive"
>>> assigned_category("C=CN1CCCC1=O")
"inactive"
>>> assigned_category("CCc1ccc(O)c(C(C)(C)C)c1")
"active"
>>> assigned_category("OC[C@H]1O[C@@](CO)(O[C@H]2O[C@H](CO)[C@@H](O)[C@H](O)[C@H]2O)[C@@H](O)[C@@H]1O")
"inactive"
>>> assigned_category("CCCCCCCCCCCCCCO")
"inactive"
>>> assigned_category("OCCOCCOCCO")
"inactive"
>>> assigned_category("CCCCC(CC)C(=O)OCCOCCOCCOC(=O)C(CC)CCCC (configuration not stated)")
"inactive"
>>> assigned_category("CCn1nc(C)c2c1C(=O)NCC(c1ccc(O)cc1)=N2")
"inactive"
>>> assigned_category("O=C(O)c1cccc(C[C@@H]2COc3ccc(OCc4nc5cc(F)ccc5s4)cc3[C@@H]2O)c1")
"inactive"
>>> assigned_category("C[C@@H](Oc1ccc(CNC(=O)c2cccnc2Oc2ccc3c(c2)OCO3)c(F)c1)C(=O)O")
"inactive"
>>> assigned_category("Nc1ccn([C@@H]2O[C@H](CO)[C@@H](O)[C@@H]2O)c(=O)n1")
"inactive"
>>> assigned_category("COS(C)(=O)=O")
"inactive"
>>> assigned_category("CCCCCCCCCCCCCCCCOS(=O)(=O)O")
"active"
>>> assigned_category("O=C(NO)C1(NS(=O)(=O)c2ccc(Oc3ccc(F)cc3)cc2)CCOCC1")
"inactive"
>>> assigned_category("S=P(N1CC1)(N1CC1)N1CC1")
"inactive"
>>> assigned_category("OCc1ccccc1")
"inactive"
>>> assigned_category("C=CCc1cc(S(=O)(=O)c2ccc(O)c(CC=C)c2)ccc1O")
"active"
>>> assigned_category("OC(CCl)CCl")
"inactive"
>>> assigned_category("CCOC(N)=O")
"inactive"
>>> assigned_category("CCc1cccc(CC)c1N")
"inactive"
>>> assigned_category("CNC(C)=O")
"inactive"
>>> assigned_category("O=C(Cl)C(F)(F)C(F)(F)C(F)(F)C(=O)Cl")
"inactive"
>>> assigned_category("NC(=O)N(O)[C@@H]1COc2cc(OCc3ccccc3)ccc21")
"inactive"
>>> assigned_category("C[C@]12C=CC(=O)C=C1CC[C@H]1[C@@H]3C[C@@H](O)[C@](O)(C(=O)CO)[C@@]3(C)C[C@H](O)[C@@]12F")
"inactive"
>>> assigned_category("CCN(CC)C(=S)SSC(=S)N(CC)CC")
"active"

----------
Read-out: Ezrin (EZR), EZR (gene 7430)
experiment-notes: LTEA_HepaRG_EZR: Life Technologies and Expression Analysis (LTEA) Assay for Ezrin (EZR) using HepaRG (AID 2283491)
run-parameters: mRNA level, 48 h; actives raise or lower the signal
Activity calls are given as the source filed them. How the source made its calls: active means hit-call score of the fitted dose curve at least 0.9, where 1 is the maximum; inactive means score below 0.9.
endpoint-name: outcome

>>> reported("COCc1nnc(-c2ccc[n+]([O-])c2)n1-c1c(Cl)c(Cl)cc2[nH]c(=O)c(=O)[nH]c12")
"inactive"
>>> reported("CC(=O)c1ccccc1")
"inactive"
>>> reported("CCc1cccc(CC)c1N")
"inactive"
>>> reported("NC(N)=O")
"inactive"
>>> reported("COc1cc(C(C)C)c2c(c1)S(=O)(=O)N(COc1cc(=O)n3cccc(OCCN4CCCCC4)c3n1)C2=O")
"inactive"
>>> reported("CCOc1ccc2[nH]cc(C(=O)NCc3ccccc3)c(=O)c2n1")
"inactive"
>>> reported("O=C(NO)C1(NS(=O)(=O)c2ccc(Oc3ccc(F)cc3)cc2)CCOCC1")
"inactive"
>>> reported("CCCCN1C(=O)[C@@H]([C@H](O)C2CCCCC2)NC(=O)C12CCN(Cc1ccc(Oc3ccc(C(=O)O)cc3)cc1)CC2")
"inactive"
>>> reported("CCCCCCCCCCCCCCCCOS(=O)(=O)O")
"inactive"
>>> reported("CCCCCCCCN(C)C")
"inactive"
>>> reported("NC(=O)N1c2ccccc2C=Cc2ccccc21")
"inactive"
>>> reported("c1ccc2cc3ccccc3cc2c1")
"inactive"
>>> reported("OCc1ccccc1")
"inactive"
>>> reported("COc1cc2c(c(OC)c1OC)-c1ccc(OC)c(=O)cc1[C@@H](NC(C)=O)CC2")
"inactive"
>>> reported("CCN(CC)C(=S)SSC(=S)N(CC)CC")
"inactive"
>>> reported("O=c1[nH]cnc2c1ncn2[C@H]1CC[C@@H](CO)O1")
"inactive"
>>> reported("Cc1nc(-c2ccccn2)ncc1C(=O)Nn1cc(C)c2cc(F)ccc21")
"inactive"
>>> reported("Cn1c(=O)c2[nH]cnc2n(C)c1=O")
"inactive"
>>> reported("OC(CCl)CCl")
"inactive"
>>> reported("Cc1ncc([C@@H](CCCCCCc2ccc3c(n2)NCCC3)CC(=O)O)cn1")
"inactive"
>>> reported("Cc1ccc(S(=O)(=O)NC(=O)NN2CCCCCC2)cc1")
"inactive"
>>> reported("C=CCc1cc(S(=O)(=O)c2ccc(O)c(CC=C)c2)ccc1O")
"inactive"
>>> reported("O=C(O)c1cccc(C[C@@H]2COc3ccc(OCc4nc5cc(F)ccc5s4)cc3[C@@H]2O)c1")
"inactive"
>>> reported("c1ccc2ncccc2c1")
"inactive"
>>> reported("O=S1(=O)CCCO1")
"inactive"
>>> reported("OC(Cn1cncn1)(Cn1cncn1)c1ccc(F)cc1F")
"inactive"

----------
assayed-system: Luciferin 4-monooxygenase (Photinus pyralis) (UniProt P08659)
Sequence (P08659 whole entry, looked up): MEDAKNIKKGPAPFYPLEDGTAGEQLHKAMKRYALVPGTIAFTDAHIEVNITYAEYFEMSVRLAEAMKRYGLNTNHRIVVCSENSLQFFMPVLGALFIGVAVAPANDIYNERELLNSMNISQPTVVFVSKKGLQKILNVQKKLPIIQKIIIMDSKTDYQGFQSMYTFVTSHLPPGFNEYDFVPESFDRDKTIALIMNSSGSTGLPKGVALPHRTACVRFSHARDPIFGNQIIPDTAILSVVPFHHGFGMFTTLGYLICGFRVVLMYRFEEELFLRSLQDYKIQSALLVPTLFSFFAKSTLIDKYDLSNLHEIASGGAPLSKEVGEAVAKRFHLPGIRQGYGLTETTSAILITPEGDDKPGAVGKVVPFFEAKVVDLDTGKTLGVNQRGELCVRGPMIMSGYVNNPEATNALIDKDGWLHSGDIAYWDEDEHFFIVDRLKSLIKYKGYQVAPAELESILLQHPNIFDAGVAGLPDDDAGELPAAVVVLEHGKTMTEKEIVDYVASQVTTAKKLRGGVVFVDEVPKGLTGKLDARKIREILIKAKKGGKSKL
experiment-notes: CCTE_Simmons_QuantiLum_inhib_2: CCTE's Firefly Luciferase Inhibition Assay, Simmons Lab (AID 2283767);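 on AC50: potency for inhibitors that lower luciferase luminescence relative to DMSO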
Results filed as inconclusive are left out. Activity calls are given as the source filed them. Rule for the calls: active = hit-call score of the fitted dose curve at least 0.9, where 1 is the maximum; inconclusive = response in the unintended direction; inactive = score below 0.9.
endpoint-name: AC50

>>> reported("CCn1nc(C)c2c1C(=O)NCC(c1ccc(O)cc1)=N2")
"15.8 µM (active)"
>>> reported("c1ccc2cc3ccccc3cc2c1")
"inactive"
>>> reported("C=CCc1cc(S(=O)(=O)c2ccc(O)c(CC=C)c2)ccc1O")
"inactive"
>>> reported("NC(=O)N(O)[C@@H]1COc2cc(OCc3ccccc3)ccc21")
"2.1 µM (active)"
>>> reported("COS(C)(=O)=O")
"inactive"
>>> reported("C[C@@H](Oc1ccc(CNC(=O)c2cccnc2Oc2ccc3c(c2)OCO3)c(F)c1)C(=O)O")
"inactive"
>>> reported("CCCCCCCCCCCCCCCCOS(=O)(=O)O")
"inactive"

----------
assayed-system: Myc proto-oncogene protein (Homo sapiens) (UniProt P01106)
Sequence (P01106 whole entry, looked up): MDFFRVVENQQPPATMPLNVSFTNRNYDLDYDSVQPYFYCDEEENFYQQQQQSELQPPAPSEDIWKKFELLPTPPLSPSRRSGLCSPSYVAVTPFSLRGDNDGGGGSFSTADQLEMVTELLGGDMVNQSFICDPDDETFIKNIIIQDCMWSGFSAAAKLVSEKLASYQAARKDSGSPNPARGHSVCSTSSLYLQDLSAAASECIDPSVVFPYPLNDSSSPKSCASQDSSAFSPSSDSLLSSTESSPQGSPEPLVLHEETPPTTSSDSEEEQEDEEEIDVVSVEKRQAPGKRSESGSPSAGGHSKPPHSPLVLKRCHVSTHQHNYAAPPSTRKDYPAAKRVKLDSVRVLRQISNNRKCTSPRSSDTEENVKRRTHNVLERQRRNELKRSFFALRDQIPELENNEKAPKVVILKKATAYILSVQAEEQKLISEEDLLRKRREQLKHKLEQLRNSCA
experiment-notes: ATG_Myc_CIS: Attagene CIS-FACTORIAL HepG2 Assay for human Myelocytomatosis (Myc) Proto-Oncogene Transcription Factor (AID 2282990)
run-parameters: HepG2, Attagene cis-reporter transcription factor activity; actives raise or lower the signal
Calls of active or inactive are those of the source. How the source made its calls: active means hit-call score of the fitted dose curve at least 0.9, where 1 is the maximum; inactive means score below 0.9.
endpoint-name: outcome

>>> reported("O=C(NO)C1(NS(=O)(=O)c2ccc(Oc3ccc(F)cc3)cc2)CCOCC1")
"inactive"
>>> reported("CCCCC(CC)C(=O)OCCOCCOCCOC(=O)C(CC)CCCC (stereo not drawn)")
"inactive"
>>> reported("O=C(Cl)C(F)(F)C(F)(F)C(F)(F)C(=O)Cl")
"inactive"
>>> reported("CCc1cccc(CC)c1N")
"inactive"
>>> reported("NCC(F)(F)C(F)(F)C(F)(F)C(F)(F)F")
"inactive"
>>> reported("OCc1c[nH]c2ccccc12")
"inactive"
>>> reported("c1ccc2cc3ccccc3cc2c1")
"inactive"
>>> reported("Cn1c(=O)c2[nH]cnc2n(C)c1=O")
"inactive"
>>> reported("c1ccc2ncccc2c1")
"inactive"
>>> reported("O=C1CN(N=Cc2ccc([N+](=O)[O-])o2)C(=O)N1")
"inactive"
>>> reported("CCCCCCOC(=O)CC(CC(=O)OCCCCCC)(OC(=O)CCC)C(=O)OCCCCCC")
"inactive"
>>> reported("COCc1nnc(-c2ccc[n+]([O-])c2)n1-c1c(Cl)c(Cl)cc2[nH]c(=O)c(=O)[nH]c12")
"inactive"
>>> reported("C[C@@H](Oc1ccc(CNC(=O)c2cccnc2Oc2ccc3c(c2)OCO3)c(F)c1)C(=O)O")
"inactive"
>>> reported("O=C(N[C@H](CO)[C@H](O)c1ccc([N+](=O)[O-])cc1)C(Cl)Cl")
"inactive"
>>> reported("CC1(C)C(=O)N(Cl)C(=O)N1Cl")
"inactive"
>>> reported("CCCCCCCCCC")
"inactive"
>>> reported("CNC(C)=O")
"inactive"
>>> reported("NC(=O)N(O)[C@@H]1COc2cc(OCc3ccccc3)ccc21")
"inactive"
>>> reported("OC(O)(C(F)C(O)(O)C(F)(F)F)C(F)(F)F")
"inactive"
>>> reported("OC(CCl)CCl")
"inactive"
>>> reported("OC[C@H]1O[C@@H]2O[C@H]3[C@H](O)[C@@H](O)[C@@H](O[C@H]4[C@H](O)[C@@H](O)[C@@H](O[C@H]5[C@H](O)[C@@H](O)[C@@H](O[C@H]6[C@H](O)[C@@H](O)[C@@H](O[C@H]7[C@H](O)[C@@H](O)[C@@H](O[C@H]1[C@H](O)[C@H]2O)O[C@@H]7CO)O[C@@H]6CO)O[C@@H]5CO)O[C@@H]4CO)O[C@@H]3CO")
"inactive"
>>> reported("OCCC(F)(F)C(F)(F)C(F)(F)C(F)(F)F")
"inactive"
>>> reported("CCCCN1C(=O)[C@@H]([C@H](O)C2CCCCC2)NC(=O)C12CCN(Cc1ccc(Oc3ccc(C(=O)O)cc3)cc1)CC2")
"inactive"
